- Target under test: p110δ/p85α (Homo sapiens, UniProt O00329)
- Sequence (O00329 whole entry): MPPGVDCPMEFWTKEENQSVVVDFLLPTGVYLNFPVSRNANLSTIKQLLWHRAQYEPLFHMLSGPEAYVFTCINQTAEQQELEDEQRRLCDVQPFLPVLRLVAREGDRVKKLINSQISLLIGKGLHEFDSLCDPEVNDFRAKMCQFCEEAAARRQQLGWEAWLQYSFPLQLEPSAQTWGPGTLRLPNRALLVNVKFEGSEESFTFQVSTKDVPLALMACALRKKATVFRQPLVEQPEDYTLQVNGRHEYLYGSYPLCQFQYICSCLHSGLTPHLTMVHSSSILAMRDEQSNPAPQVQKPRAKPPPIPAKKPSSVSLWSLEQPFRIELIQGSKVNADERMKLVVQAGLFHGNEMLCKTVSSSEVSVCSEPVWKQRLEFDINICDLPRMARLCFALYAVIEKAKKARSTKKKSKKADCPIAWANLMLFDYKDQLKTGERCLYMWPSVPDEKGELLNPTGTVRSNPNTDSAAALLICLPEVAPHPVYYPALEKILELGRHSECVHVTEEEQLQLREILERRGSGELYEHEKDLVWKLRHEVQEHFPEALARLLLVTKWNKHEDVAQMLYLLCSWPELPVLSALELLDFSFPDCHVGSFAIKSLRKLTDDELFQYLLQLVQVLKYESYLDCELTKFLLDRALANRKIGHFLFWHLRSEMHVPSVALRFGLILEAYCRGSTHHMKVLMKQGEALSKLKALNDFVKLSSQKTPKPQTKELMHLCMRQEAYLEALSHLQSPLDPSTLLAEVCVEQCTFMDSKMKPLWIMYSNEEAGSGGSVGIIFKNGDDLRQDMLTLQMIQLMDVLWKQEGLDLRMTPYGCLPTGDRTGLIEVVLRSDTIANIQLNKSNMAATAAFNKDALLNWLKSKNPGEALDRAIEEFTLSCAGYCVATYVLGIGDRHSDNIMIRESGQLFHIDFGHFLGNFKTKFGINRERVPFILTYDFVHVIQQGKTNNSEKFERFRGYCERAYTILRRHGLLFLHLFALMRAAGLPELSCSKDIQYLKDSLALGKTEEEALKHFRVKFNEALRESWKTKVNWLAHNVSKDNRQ
- Sequence (P27986 whole entry partner): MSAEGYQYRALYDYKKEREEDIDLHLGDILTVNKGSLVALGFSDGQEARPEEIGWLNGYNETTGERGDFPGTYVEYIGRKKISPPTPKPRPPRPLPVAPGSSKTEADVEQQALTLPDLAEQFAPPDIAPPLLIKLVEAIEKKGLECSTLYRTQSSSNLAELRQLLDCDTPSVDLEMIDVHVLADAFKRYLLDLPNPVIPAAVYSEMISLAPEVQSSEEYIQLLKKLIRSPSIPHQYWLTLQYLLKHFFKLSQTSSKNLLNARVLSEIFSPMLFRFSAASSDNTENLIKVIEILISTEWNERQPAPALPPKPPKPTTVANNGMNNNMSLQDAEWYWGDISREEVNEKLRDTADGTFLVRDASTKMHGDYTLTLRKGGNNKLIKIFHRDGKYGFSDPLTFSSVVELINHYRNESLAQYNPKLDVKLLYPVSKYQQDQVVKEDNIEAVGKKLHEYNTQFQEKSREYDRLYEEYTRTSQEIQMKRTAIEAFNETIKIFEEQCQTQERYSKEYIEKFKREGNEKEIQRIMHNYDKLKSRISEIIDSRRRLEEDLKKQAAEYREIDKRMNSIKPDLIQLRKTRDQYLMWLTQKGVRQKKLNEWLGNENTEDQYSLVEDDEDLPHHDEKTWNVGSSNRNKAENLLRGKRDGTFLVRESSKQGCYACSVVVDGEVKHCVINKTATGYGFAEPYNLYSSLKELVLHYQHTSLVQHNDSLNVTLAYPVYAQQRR
- Experiment description: Transcreener KINASE Assay, kinase inhibition of p110δ/p85α
- Type: biochemical
- Protocol conditions: 1 uM test compound
# PI3Kδ IH % @ 1 uM per entry
Metric name: PI3Kδ IH % @ 1 uM

CSc1n[nH]c2ncnc(N3CCC[C@H]3c3nn4ccc(Cl)c4c(=O)n3-c3ccccc3)c12 [Compound 221] ... 68.0%
Nc1ccc(-c2c[nH]c3ncnc(N4CC[C@H]4c4nn5ccc(F)c5c(=O)n4-c4ccccc4)c23)cn1 [Compound 183] ... >100%
C[C@H]1CN(c2nc(N)nc(N)c2C#N)[C@@H]1c1nn2ccc(Cl)c2c(=O)n1-c1ccc(F)cc1 [Compound 480] ... >100%
C[S@@+]([O-])c1c[nH]c2ncnc(N3CCC[C@H]3c3nn4ccc(Cl)c4c(=O)n3-c3ccccc3)c12 [Compound 383] ... 98.8%
COCC#Cc1c[nH]c2ncnc(N3CC[C@H]3c3nn4ccc(Cl)c4c(=O)n3-c3ccccc3)c12 [Compound 279] ... >100%
CC(=O)c1c[nH]c2ncnc(N3CC[C@H]3c3nn4ccc(Cl)c4c(=O)n3-c3ccccc3)c12 [Compound 185] ... >100%
CC(=O)c1cnc(N)nc1N1C[C@H](C)[C@H]1c1nn2ccc(F)c2c(=O)n1-c1ccccc1 [Compound 324] ... 98.8%

---

- Target under test: p110δ/p85α (Homo sapiens, UniProt O00329)
- Experiment description: Transcreener KINASE Assay, kinase inhibition of p110δ/p85α
- Format: biochemical
- Protocol conditions: 1 uM test compound
# maps each entry to its PI3Kδ IH % @ 1 uM
Metric name: PI3Kδ IH % @ 1 uM (%)

C[S+]([O-])c1n[nH]c2ncnc(N3CC[C@H]3c3nn4ccc(Cl)c4c(=O)n3-c3ccccc3)c12 (stereo partly shown) [Compound 353] ... 33.8
CC(=O)c1cnc(N)nc1N1C[C@H](C)[C@H]1c1nn2ccc(Cl)c2c(=O)n1-c1cccc(F)c1 [Compound 467] ... 89.7
CC(Nc1ncnc2[nH]cnc12)c1cn2ccc(-c3cnn(C)c3)c2c(=O)n1-c1ccccc1 (stereo not shown) [Compound 93] ... 77.6
Nc1nc2c(c(N3CCC[C@H]3c3nn4ccc(Br)c4c(=O)n3-c3ccccc3)n1)CCC2 [Compound 245] ... 78.0
Nc1nc(N2CC[C@H]2c2nn3ccc(Br)c3c(=O)n2-c2ccccc2)n2nccc2n1 [Compound 135] ... 74.5
CC(Nc1ncnc2[nH]cc(C#N)c12)c1cn2ccc(Cl)c2c(=O)n1-c1cccc(F)c1 (stereo not shown) [Compound 76] ... 98.8

---

- Target under test: p110γ (Homo sapiens, UniProt P48736)
- Sequence (P48736 whole entry): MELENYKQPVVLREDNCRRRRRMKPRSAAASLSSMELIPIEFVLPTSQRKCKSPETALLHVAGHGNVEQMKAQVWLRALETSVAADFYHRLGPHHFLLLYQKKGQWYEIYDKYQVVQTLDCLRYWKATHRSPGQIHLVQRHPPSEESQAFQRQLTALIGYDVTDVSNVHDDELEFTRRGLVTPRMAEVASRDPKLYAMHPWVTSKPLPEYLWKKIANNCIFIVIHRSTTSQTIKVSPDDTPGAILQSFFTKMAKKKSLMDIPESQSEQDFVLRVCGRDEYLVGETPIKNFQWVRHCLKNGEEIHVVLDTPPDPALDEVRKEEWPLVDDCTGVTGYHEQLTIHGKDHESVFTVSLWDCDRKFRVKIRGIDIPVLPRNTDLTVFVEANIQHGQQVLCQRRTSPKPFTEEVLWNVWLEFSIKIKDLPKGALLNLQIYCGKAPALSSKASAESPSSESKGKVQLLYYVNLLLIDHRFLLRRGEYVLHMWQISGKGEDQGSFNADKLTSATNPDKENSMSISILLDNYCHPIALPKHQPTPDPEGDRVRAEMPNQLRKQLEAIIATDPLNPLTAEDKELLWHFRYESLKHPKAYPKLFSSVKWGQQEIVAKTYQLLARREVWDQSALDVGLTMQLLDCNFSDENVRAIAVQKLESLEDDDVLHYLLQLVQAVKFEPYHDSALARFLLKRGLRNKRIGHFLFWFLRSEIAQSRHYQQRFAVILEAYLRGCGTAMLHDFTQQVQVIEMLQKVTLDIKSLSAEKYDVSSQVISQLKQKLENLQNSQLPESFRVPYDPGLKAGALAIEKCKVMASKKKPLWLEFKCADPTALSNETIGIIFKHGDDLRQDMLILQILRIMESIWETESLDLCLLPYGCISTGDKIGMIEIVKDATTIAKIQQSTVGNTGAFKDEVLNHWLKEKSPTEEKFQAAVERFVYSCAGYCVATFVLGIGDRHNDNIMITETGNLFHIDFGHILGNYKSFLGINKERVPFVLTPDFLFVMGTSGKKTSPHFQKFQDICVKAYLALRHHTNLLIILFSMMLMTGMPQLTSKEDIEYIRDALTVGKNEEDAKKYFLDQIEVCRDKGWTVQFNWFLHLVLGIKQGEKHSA
- Experiment description: Transcreener KINASE Assay, kinase inhibition of p110γ
- Format: biochemical
- Protocol conditions: 1 uM test compound
Classify as follows. Reported PI3Kγ IH % @ 1 uM greater than or equal to 90%: yes. Reported PI3Kγ IH % @ 1 uM below: no.

C[C@H]1CN(c2nc(N)ncc2C#N)C1c1nn2ccc(F)c2c(=O)n1-c1ccccc1 (stereo partly shown) ... no
CC(Nc1ncnc2[nH]cc(C#N)c12)c1cc2ccc(Cl)n2c(=O)n1-c1ccccc1 (stereo not shown) ... yes
N#Cc1c[nH]c2ncnc(N3CCC[C@H]3c3nn4ccc(Cl)c4c(=O)n3CC3CCCCC3)c12 ... no
COc1ncc(-c2c[nH]c3ncnc(N4CC[C@H]4c4nn5ccc(Cl)c5c(=O)n4-c4ccccc4)c23)cn1 ... yes
Cc1nc(N)nc(N2CCC2c2nn3ccc(Cl)c3c(=O)n2-c2ccccn2)c1C#N (stereo not shown) ... yes
CC(Nc1ncnc2[nH]cnc12)c1cn2ccc(Cl)c2c(=O)n1-c1cc(F)cc(F)c1 (stereo not shown) ... no
